- tested_on: Aurora B/INCENP (Homo sapiens, UniProt Q96GD4)
- Sequence (Q96GD4 whole entry): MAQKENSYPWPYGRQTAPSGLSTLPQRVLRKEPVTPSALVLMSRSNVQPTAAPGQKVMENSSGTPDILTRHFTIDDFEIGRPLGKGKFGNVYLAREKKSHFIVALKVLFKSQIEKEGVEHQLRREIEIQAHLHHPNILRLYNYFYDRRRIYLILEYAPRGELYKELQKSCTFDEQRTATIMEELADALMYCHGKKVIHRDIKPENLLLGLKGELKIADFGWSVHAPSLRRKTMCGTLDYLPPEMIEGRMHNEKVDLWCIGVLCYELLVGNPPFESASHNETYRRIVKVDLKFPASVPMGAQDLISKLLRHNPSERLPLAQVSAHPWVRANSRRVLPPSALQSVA
- Sequence (Q9NQS7 whole entry partner): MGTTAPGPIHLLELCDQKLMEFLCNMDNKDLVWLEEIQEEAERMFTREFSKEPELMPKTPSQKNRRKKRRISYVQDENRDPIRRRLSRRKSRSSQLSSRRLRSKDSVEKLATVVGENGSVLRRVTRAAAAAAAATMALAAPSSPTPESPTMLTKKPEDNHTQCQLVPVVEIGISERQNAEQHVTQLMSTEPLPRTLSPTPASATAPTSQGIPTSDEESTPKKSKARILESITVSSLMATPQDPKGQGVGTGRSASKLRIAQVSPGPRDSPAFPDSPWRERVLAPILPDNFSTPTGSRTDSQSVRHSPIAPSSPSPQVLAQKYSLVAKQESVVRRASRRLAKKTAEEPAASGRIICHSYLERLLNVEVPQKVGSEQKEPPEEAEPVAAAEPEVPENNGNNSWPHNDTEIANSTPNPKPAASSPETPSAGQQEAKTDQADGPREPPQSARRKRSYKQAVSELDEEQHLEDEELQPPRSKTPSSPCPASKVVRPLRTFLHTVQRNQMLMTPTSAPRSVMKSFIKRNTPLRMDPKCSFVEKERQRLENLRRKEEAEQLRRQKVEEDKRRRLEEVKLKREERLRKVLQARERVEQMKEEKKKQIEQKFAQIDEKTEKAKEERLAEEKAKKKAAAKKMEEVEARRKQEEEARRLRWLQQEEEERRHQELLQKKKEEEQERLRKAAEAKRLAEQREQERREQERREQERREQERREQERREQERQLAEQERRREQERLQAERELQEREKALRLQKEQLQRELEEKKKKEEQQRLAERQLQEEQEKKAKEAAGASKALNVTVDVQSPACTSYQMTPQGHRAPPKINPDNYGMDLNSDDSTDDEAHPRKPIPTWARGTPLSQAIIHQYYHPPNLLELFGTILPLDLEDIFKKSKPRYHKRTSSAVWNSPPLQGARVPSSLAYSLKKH
- experiment_notes: Inhibition of AIK: Aurora B/INCENP Direct Fluorescence Polarization (IMAP) kinase assay
- cond: IC50 against AIK B; 10 uM ATP, 0.8 nM Aurora B/INCENP, 45 min at room temperature, FP readout; values given as bins
- Procedure: Detection of the reaction product is performed by addition of Progressive IMAP binding reagent (Molecular Devices). Reaction product may be determined quantitatively by FP using an Analyst HT plate reader (Molecular Devices) with an excitation wavelength at 485 nm and emission at 530 nm and using a Fluorescein 505 dichroic mirror. […] IC50 values may be calculated by non-linear curve fitting of the compound concentrations and fluorescent polarization values to the standard IC50 equation.
pIC50: −log10 of the molar value.
Collected pIC50 values appear next to each entry.

Below are worked cases with known answers.
| smiles_repr | pIC50 |
| --- | --- |
| CCS(=O)(=O)c1cccc(-c2cnc(Cl)c3[nH]c4ncc(C)cc4c23)c1 | ≥ 8.30 |
| CCS(=O)(=O)c1cccc(-c2cc(C(=O)O)cc3[nH]c4ncc(C)cc4c23)c1 | ≥ 8.30 |

Query block: So what's the measured pIC50 for this one? `CCS(=O)(=O)c1cccc(-c2ccc(O)c3[nH]c4ncc(C)cc4c23)c1`
Result block: ≥ 8.30
